- tested-on: T1, apical domain of cynomolgus CD71 (cynomolgus, UniProt A0A2K5X958 189-383)
- T1 construct: domain: apical domain; also called Cyno apical domain
- procedure-summary: primary ELISA; further: test concentration or dose not given here
Reported RLU is given for each of the following binders.
Field: numeric (RLU). Do not append units.

In the examples that follow, each entry is paired with its recorded RLU.
CD71-binding FN3 domain of SEQ ID NO: 162 (designed binder) MSLPAPKNLVVSRVTEDSARLSWTALDAAFDSFEISYWEHTFNGEAIILFVPGSERSYDLTGLKPGTEYYVTIGGVKGGAWSPPLWAEFTT | 5.49e+06
CD71-binding FN3 domain of SEQ ID NO: 137 (designed binder) MSLPAPKNLVVSRVTEDSARLSWTAPDAAFDSFFIGYLEPQPPGEAITLYVPGSERSYDLTGLKPGTEYNVTIQGVKGGFPSDPLVAHFTT | 5.96e+06

May I ask what RLU has been recorded for CD71-binding FN3 domain of SEQ ID NO: 156 (designed binder) MSLPAPKNLVVSRVTEDSARLSWTAPDAAFDSFEIGYFEMSWTGEAIVLTVPGSERSYDLTGLKPGTEYVVFIGGVKGGNWSAPLSAIFTT ?
4.43e+06

Entry under review: CD71-binding FN3 domain of SEQ ID NO: 187 (designed binder) MSLPAPKNLVVSRVTEDSARLSWTAPDAAFDSFEIGYWENAYKGEAIVLTVPGSERSYDLTGLKPGTEYRVWIGGVKGGVWSRPLSAIFTT . Reported RLU?
4.22e+06

So what's the measured RLU for this one? CD71-binding FN3 domain of SEQ ID NO: 133 (designed binder) MSLPAPKNLVVSRVTEDSARLSWTAPDAAFDSFKIKYAEYDRYGEAIALFVPGSERSYDLTGLKPGTEYFVHIDGVKGGTDSQPLVASFTT
5.11e+06
